biological target: Integrin alpha-v beta-3 (UniProt P06756+P05106); experiment: filter; settings: BzdU replaces dT in the extended strand; n = selected N40 region [n positions 19 = modified dU]; Bmax 0.45; HEPES, NaCl, KCl, MgCl2 buffer, 37 C
Sequence (P06756 31-992, chain 1 of 2): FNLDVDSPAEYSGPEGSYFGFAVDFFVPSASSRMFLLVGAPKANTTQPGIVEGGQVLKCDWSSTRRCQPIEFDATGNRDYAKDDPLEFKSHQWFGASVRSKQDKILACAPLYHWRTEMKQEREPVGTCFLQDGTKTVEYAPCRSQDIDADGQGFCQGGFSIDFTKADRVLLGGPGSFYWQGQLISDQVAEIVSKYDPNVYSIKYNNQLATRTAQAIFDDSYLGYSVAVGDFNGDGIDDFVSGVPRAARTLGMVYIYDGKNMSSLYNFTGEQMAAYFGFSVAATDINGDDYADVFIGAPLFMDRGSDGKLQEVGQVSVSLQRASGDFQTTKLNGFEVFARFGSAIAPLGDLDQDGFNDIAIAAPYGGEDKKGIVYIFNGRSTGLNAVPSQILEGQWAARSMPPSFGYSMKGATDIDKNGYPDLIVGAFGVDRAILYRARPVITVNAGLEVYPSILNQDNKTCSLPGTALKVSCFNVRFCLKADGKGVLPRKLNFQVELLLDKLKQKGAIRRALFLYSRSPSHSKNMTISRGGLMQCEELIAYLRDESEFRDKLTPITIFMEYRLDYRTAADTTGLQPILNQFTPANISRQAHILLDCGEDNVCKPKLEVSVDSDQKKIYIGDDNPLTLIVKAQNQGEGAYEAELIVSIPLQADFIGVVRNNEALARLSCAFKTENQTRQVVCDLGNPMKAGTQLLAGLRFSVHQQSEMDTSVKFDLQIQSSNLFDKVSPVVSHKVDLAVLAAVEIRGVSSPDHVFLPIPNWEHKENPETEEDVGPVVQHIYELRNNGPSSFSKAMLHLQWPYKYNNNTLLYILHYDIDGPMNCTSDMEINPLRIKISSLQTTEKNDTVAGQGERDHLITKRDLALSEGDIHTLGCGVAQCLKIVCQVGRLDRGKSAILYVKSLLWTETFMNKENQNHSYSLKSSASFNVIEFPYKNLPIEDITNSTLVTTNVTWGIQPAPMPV
Sequence (P05106 27-718, chain 2 of 2): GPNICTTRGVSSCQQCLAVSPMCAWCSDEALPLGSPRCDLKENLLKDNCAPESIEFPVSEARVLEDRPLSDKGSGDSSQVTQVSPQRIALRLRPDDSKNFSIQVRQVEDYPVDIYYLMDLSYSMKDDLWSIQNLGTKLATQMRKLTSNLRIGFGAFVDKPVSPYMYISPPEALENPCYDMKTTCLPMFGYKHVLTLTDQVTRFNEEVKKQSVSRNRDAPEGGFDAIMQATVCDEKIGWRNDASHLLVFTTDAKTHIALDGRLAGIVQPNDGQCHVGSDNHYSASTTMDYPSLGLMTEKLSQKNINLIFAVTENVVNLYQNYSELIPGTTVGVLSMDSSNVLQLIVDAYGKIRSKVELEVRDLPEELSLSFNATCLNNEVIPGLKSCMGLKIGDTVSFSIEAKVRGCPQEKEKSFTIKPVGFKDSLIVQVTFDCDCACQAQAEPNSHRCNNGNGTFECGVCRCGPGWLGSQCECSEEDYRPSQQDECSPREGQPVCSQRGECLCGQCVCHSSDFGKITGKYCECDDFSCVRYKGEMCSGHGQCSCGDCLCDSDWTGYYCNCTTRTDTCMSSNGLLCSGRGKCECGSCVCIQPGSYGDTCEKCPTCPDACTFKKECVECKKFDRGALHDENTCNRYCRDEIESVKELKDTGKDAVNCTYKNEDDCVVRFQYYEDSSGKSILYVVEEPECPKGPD
observation-type: Kd

Problem: Endpoint output: Kd of TCAGCCGCCAGCCAGTTCTGACCAGAGCACCACAGAG [Round 8 SELEX pool] . Value?
Solution: 43.3 nM
